test system: K4 kissing-loop RNA reporter; assay: apparent KD of K4 kissing-loop reporter; higher = weaker reporter binding; details: Eterna round: R107; input ligand: tryptophan 2.4 mM;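 note: bound reporter read as fluorescence of individual clusters on recovered sequencing chips by microscopy, with normalized cluster intensities fitted with a binding model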
Give condition met when the value for apparent KD of K4 kissing-loop reporter is at least 200 nM. Give condition not met when it is less.

Take a look at these entries with their results.
- CCAUCGCUAUUCGAUACCAGCUACUUAGUGAUGUUAAGUUUAAAUCCACUGUAGGUGGAAAGCCCUUGGCAGCGAAUAGUGAUGG [Theophylline B K4 24]: condition met
- GCAAUUCUCAGUGAUGUUGAGUAAUCGGAAGGAGCGCGUGAAAACGCAGGUAGGUCGCCGAAACAUGAAGUAUCUUCGUGUUUGC [Arginine A K4 24]: condition not met

[ask] Check if apparent KD of K4 kissing-loop reporter >= 200 nM (inclusive). Item: AAACAUUGGUCUGAUACCAGCUGAUCGGAAACGAUCAUGCUGGAGUGAUGUUCCAGGAAAAGCCCUUGGCAGCAGACCGAUGAAA [MAT - Same State Theophlline B - Mod of Eli - D28]
[reply] condition not met

[ask] Check if apparent KD of K4 kissing-loop reporter >= 200 nM (inclusive). Item: AUGGUAUUGCGAGGAUAUCCUUCAAAUGUGACACUAACGGCAGUGAUGUUGCCGGCGUCUUUUUGAGGAGAAGGCGCGGUGUUAU [Exclusion FMN B GF 24]
[reply] condition not met

[ask] Check if apparent KD of K4 kissing-loop reporter >= 200 nM (inclusive). Item: AGCUCAGAGUGACUCGAUAAGAGUCACAAACGAGGACCGGUACGGCCGCCACUCGAAAUAACGAGAGUGAUGUUUUCGCUGAGCA [FiskerMod 6 - Jieux - Same State Tryptophan A]
[reply] condition met
